protein stability index values by entry
B1: FAM107A (parent)
chain: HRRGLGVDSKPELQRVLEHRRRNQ

variants of: B1; assay: protein stability index of a GFP-peptide fusion (GPS, HEK-293T) (PSI 1-6); higher = more stable; details: c terminus: a fixed tail appended;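 note: lentivirally expressed fusions sorted by FACS into six bins by GFP to DsRed ratio, PSI derived from sequencing read proportions per bin multiplied by bin number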

Consider the worked cases shown below.
K10E    4.55
P11K    3.82
V16I    3.63
D8Q    3.34
V7T    4.79

Item `R20K` has what recorded protein stability index?
4.79

Item `V7D` has what recorded protein stability index?
4.93

Item `S9K` has what recorded protein stability index?
4.76

Item `R22Y` has what recorded protein stability index?
3.82

Item `E12T` has what recorded protein stability index?
2.98

Item `L17K` has what recorded protein stability index?
4.53

Item `P11G` has what recorded protein stability index?
4.55

Item `R2Q` has what recorded protein stability index?
4.58

Item `S9I` has what recorded protein stability index?
4.66

Item `R2L` has what recorded protein stability index?
3.91

Item `D8K` has what recorded protein stability index?
3.79

Item `R22P` has what recorded protein stability index?
4.36

Item `V16C` has what recorded protein stability index?
4.44

Item `Q14H` has what recorded protein stability index?
3.48

Where do these numbers come from? They come from the supplement of paper PMC10567573.
